Cited source for all entries: ChEMBL document CHEMBL1687764

Measured log10 of MIC, listed per entry.
System: Yersinia enterocolitica
Test: Antimicrobial activity against beta-lactamase A-deficient Yersinia enterocolitica GY5717 after 20 hrs by Etest
Format: functional
Conditions: GY5717, 20 h
Base-10 log of MIC, unit µg/mL.

COMPOUND: CO/N=C(\C(=O)N[C@@H]1C(=O)N2C(C(=O)O)=C(COC(N)=O)CS[C@H]12)c1ccco1 [CEFUROXIME]
log10 of MIC: -0.30
//
COMPOUND: CC1(C)S[C@@H]2[C@H](NC(=O)[C@H](N)c3ccc(O)cc3)C(=O)N2[C@H]1C(=O)O [AMOXICILLIN]
log10 of MIC: 0.18

If you can, please state the reported log10 of MIC value of CC1(C)S[C@@H]2[C@H](NC(=O)Cc3ccccc3)C(=O)N2[C@H]1C(=O)O [PENICILLIN G] .
0.60

Also CCN1CCN(C(=O)N[C@@H](C(=O)N[C@@H]2C(=O)N3[C@@H]2SC(C)(C)[C@@H]3C(=O)O)c2ccccc2)C(=O)C1=O [PIPERACILLIN] ?
-0.72

* * *

# key: entry, value: MIC
Tested on: Yersinia enterocolitica
Assay: Antimicrobial activity against beta-lactamase B-deficient Yersinia enterocolitica GY5542 after 20 hrs by Etest
Format: functional
Details: GY5542, 20 h
Numeric answer only, unit mg/L assumed.

COMPOUND: CC1(C)S[C@@H]2[C@H](NC(=O)[C@H](N)c3ccccc3)C(=O)N2[C@H]1C(=O)O
ASSAY_TARGET: Yersinia enterocolitica
UNIT_NAME: mg/L
MIC: 4

COMPOUND: CCN1CCN(C(=O)N[C@@H](C(=O)N[C@@H]2C(=O)N3[C@@H]2SC(C)(C)[C@@H]3C(=O)O)c2ccccc2)C(=O)C1=O
ASSAY_TARGET: Yersinia enterocolitica
UNIT_NAME: mg/L
MIC: 0.75

COMPOUND: CO/N=C(\C(=O)N[C@@H]1C(=O)N2C(C(=O)O)=C(COC(N)=O)CS[C@H]12)c1ccco1
ASSAY_TARGET: Yersinia enterocolitica
UNIT_NAME: mg/L
MIC: 0.75

COMPOUND: CO/N=C(\C(=O)N[C@@H]1C(=O)N2C(C(=O)O)=C(CSc3nc(=O)c(O)nn3C)CS[C@H]12)c1csc(N)n1
ASSAY_TARGET: Yersinia enterocolitica
UNIT_NAME: mg/L
MIC: 0.016

COMPOUND: CO/N=C(\C(=O)N[C@@H]1C(=O)N2C(C(=O)O)=C(COC(C)=O)CS[C@H]12)c1csc(N)n1
ASSAY_TARGET: Yersinia enterocolitica
UNIT_NAME: mg/L
MIC: 0.016

COMPOUND: CC1(C)S[C@@H]2[C@H](NC(=O)[C@H](N)c3ccc(O)cc3)C(=O)N2[C@H]1C(=O)O
ASSAY_TARGET: Yersinia enterocolitica
UNIT_NAME: mg/L
MIC: 24

COMPOUND: C[C@@H](O)[C@H]1C(=O)N2C(C(=O)O)=C(SCCNC=N)C[C@H]12 [IMIPENEM ANHYDROUS]
ASSAY_TARGET: Yersinia enterocolitica
UNIT_NAME: mg/L
MIC: 0.25

# context switch: different compound, same MIC
Give the reported MIC for CC1(C)S[C@@H]2[C@H](NC(=O)Cc3ccccc3)C(=O)N2[C@H]1C(=O)O (system: Yersinia enterocolitica).
24
